# Test system: SK-LU-1
# measurement description: Cytotoxicity against human SKLU1 cells after 48 hrs by SRB assay
# Type: functional, cell-based
# experimental conditions: SK-LU-1, 48 h
readout: IC50 (µM)
Hi! Could you send only the number? It should be in µM, unit omitted.

Prompt line: Which measured IC50 value corresponds to C[C@]12C[C@H](c3ccoc3)OC(=O)[C@@H]1[C@H](O)C[C@@]13COC(=O)C1=CC[C@H]1O[C@]132 [TEHUANINE F] ?
Response line: 38.9

Source listed as ChEMBL document CHEMBL2046426.
